Tested on: Caco-2 monolayer
Experiment: Bidirectional Caco-2 permeability
Type: in vitro ADME
Conditions: B-A direction
reported.property: Caco-2 B-A

Form: molecule = CCCN1C(CO)C2c3ccccc3N(S(C)(=O)=O)CC21 (racemic) [31c] ; Caco-2 B-A = 64 10^−6 cm.s^−1

Form: molecule = CCCN1C(CO)C2c3ccccc3NCC21 (racemic) [31a] ; Caco-2 B-A = 29 10^−6 cm.s^−1

Form: molecule = CCCN1C2CN(C(C)=O)CC1C2c1ccccc1 (stereo not drawn) [27b] ; Caco-2 B-A = 56 10^−6 cm.s^−1

Form: molecule = CCCN1C(CO)C2c3ccccc3N(C(C)=O)CC21 (racemic) [31b] ; Caco-2 B-A = 51 10^−6 cm.s^−1

Form: molecule = CCCN1[C@H](CO)[C@H](c2ccccc2)[C@@H]1C#N [26a] ; Caco-2 B-A = 49 10^−6 cm.s^−1

Form: molecule = CCCN1[C@H](CO)[C@H](c2ccccc2)[C@@H]1CN [26b] ; Caco-2 B-A = 8 10^−6 cm.s^−1

====

Would you kindly list Caco-2 A-B for each of these compounds?
Test system: Caco-2 monolayer
Assay: Bidirectional Caco-2 permeability
Assay type: in vitro ADME
Conditions: A-B direction

Form: compound = CCCN1[C@H](CO)[C@H](c2ccccc2)[C@@H]1C#N [26a] ; Caco-2 A-B = 67 10^−6 cm.s^−1

Form: compound = CCCN1[C@H](CO)[C@H](c2ccccc2)[C@@H]1CN [26b] ; Caco-2 A-B = 16 10^−6 cm.s^−1

Form: compound = CCCN1C(CO)C2c3ccccc3N(S(C)(=O)=O)CC21 (racemic) [31c] ; Caco-2 A-B = 56 10^−6 cm.s^−1

Form: compound = CCCN1C(CO)C2c3ccccc3N(C(C)=O)CC21 (racemic) [31b] ; Caco-2 A-B = 48 10^−6 cm.s^−1

Form: compound = CCCN1C(CO)C2c3ccccc3NCC21 (racemic) [31a] ; Caco-2 A-B = 43 10^−6 cm.s^−1

Form: compound = CCCN1C2CN(C(C)=O)CC1C2c1ccccc1 (stereo not drawn) [27b] ; Caco-2 A-B = 54 10^−6 cm.s^−1

====

Assay: Plasma protein binding by rapid-equilibrium dialysis, mouse
Conditions: 37 °C for 5 h
Could you please mark label 1 for values of protein binding mouse below 20 % bound and label 0 for values at or above it?

Request: Lab log: compare recorded protein binding mouse with 20 % bound; is it strictly lower for CCCN1C2CN(S(C)(=O)=O)CC1C2c1ccccc1 (stereo not drawn) [27c] ?
Response: label 0

Request: Lab log: compare recorded protein binding mouse with 20 % bound; is it strictly lower for OC[C@@H]1[C@H](c2ccccc2)[C@@H]2CNCCCCN12 [29b] ?
Response: label 1

Request: Lab log: compare recorded protein binding mouse with 20 % bound; is it strictly lower for CCCN1C2CN(C(C)=O)CC1C2c1ccccc1 (stereo not drawn) [27b] ?
Response: label 1

Request: Lab log: compare recorded protein binding mouse with 20 % bound; is it strictly lower for CCCN1[C@H](CO)[C@H](c2ccccc2)[C@@H]1C#N [26a] ?
Response: label 0

Request: Lab log: compare recorded protein binding mouse with 20 % bound; is it strictly lower for CCCN1C(CO)C2c3ccccc3N(S(C)(=O)=O)CC21 (racemic) [31c] ?
Response: label 0

Request: Lab log: compare recorded protein binding mouse with 20 % bound; is it strictly lower for CCCN1[C@H](CO)[C@H](c2ccccc2)[C@@H]1CN [26b] ?
Response: label 1

Request: Lab log: compare recorded protein binding mouse with 20 % bound; is it strictly lower for CS(=O)(=O)N1CC(=O)N2[C@H](CO)[C@H](c3ccccc3)[C@@H]2C1 [28c] ?
Response: label 1

Request: Lab log: compare recorded protein binding mouse with 20 % bound; is it strictly lower for CCCN1C2CN(Cc3ccc(F)cc3)CC1C2c1ccccc1 (stereo not drawn) [27d] ?
Response: label 0

Request: Lab log: compare recorded protein binding mouse with 20 % bound; is it strictly lower for CCCN1[C@@H]2COc3ccccc3[C@@H]2[C@@H]1CNC(=O)c1ccccc1 [32a] ?
Response: label 0

Request: Lab log: compare recorded protein binding mouse with 20 % bound; is it strictly lower for OC[C@@H]1[C@H](c2ccc(Br)cc2)[C@@H]2CNCCCCN12 [29a] ?
Response: label 0

Request: Lab log: compare recorded protein binding mouse with 20 % bound; is it strictly lower for CCCN1C(CO)C2c3ccccc3NCC21 (racemic) [31a] ?
Response: label 0

====

Assay: physchem
Conditions: PBS, aqueous buffer, thermodynamic from solid
Would you kindly list solubility at 24 h for each of these compounds?
Numeric answer only, unit µM assumed.

Form: compound = CCCN1C2CN(S(C)(=O)=O)CC1C2c1ccccc1 (centres unmarked) [27c] ; solubility at 24 h = 470

Form: compound = CCCN1[C@@H]2COc3ccccc3[C@@H]2[C@@H]1CNC(=O)c1ccccc1 [32a] ; solubility at 24 h = 43

Form: compound = CCCN1C2CN(Cc3ccc(F)cc3)CC1C2c1ccccc1 (centres unmarked) [27d] ; solubility at 24 h = 335

Form: compound = CN1CCCCN2[C@H](CO)[C@H](c3ccccc3)[C@@H]2C1 [29c] ; solubility at 24 h = 494

Form: compound = OC[C@@H]1[C@H](c2ccc(Br)cc2)[C@@H]2CNCCCCN12 [29a] ; solubility at 24 h = 485

Form: compound = CCCN1[C@@H]2COc3ccccc3[C@@H]2[C@@H]1CNS(C)(=O)=O [32b] ; solubility at 24 h = 453

====

Test: Solubility in PBS and H2O, dry powder, 24 hour timepoint
Conditions: PBS
reported.property: solubility PBS (µM)
Numeric answer only, unit µM assumed.

Form: compound = CCCN1C2CN(C(C)=O)CC1C2c1ccccc1 (stereo not drawn) [27b] ; solubility PBS = 476

Form: compound = CCCN1C(CO)C2c3ccccc3N(C(C)=O)CC21 (racemic) [31b] ; solubility PBS = 489

Form: compound = CCCN1C(CO)C2c3ccccc3N(S(C)(=O)=O)CC21 (racemic) [31c] ; solubility PBS = 478

Form: compound = CCCN1[C@H](CO)[C@H](c2ccccc2)[C@@H]1C#N [26a] ; solubility PBS = 402

====

Assay: Solubility in PBS and H2O, dry powder, 24 hour timepoint
Conditions: H2O
reported.property: solubility H2O (µM)
Numeric answer only, unit µM assumed.

Form: molecule = CCCN1C(CO)C2c3ccccc3N(C(C)=O)CC21 (racemic) [31b] ; solubility H2O = 496

Form: molecule = CCCN1C(CO)C2c3ccccc3NCC21 (racemic) [31a] ; solubility H2O = 495

Form: molecule = CCCN1C2CN(C(C)=O)CC1C2c1ccccc1 (stereo not drawn) [27b] ; solubility H2O = 483

====

Would you kindly list plasma stability mouse for each of these compounds?
Experiment: Plasma stability, mouse
Settings: % parent remaining at 5 h
Numeric answer only, unit % remaining assumed.

Form: compound = CCCN1[C@H](CO)[C@H](c2ccccc2)[C@@H]1C#N [26a] ; plasma stability mouse = 110

Form: compound = CCCN1C2CNCC1C2c1ccccc1 (stereo not shown) [27a] ; plasma stability mouse = 103

Form: compound = CCCN1[C@H](CO)[C@H](c2ccccc2)C12CN(C(C)=O)C2 [30c] ; plasma stability mouse = 97

Form: compound = CCCN1C(CO)C2c3ccccc3N(S(C)(=O)=O)CC21 (racemic) [31c] ; plasma stability mouse = 107

====

Experiment: Plasma protein binding by rapid-equilibrium dialysis, human
Details: 37 °C for 5 h
reported.property: protein binding human (% bound)
Numeric answer only, unit % bound assumed.

Form: compound = CCCN1C(CO)C2c3ccccc3NCC21 (racemic) [31a] ; protein binding human = 10

Form: compound = CCCN1[C@H](CO)[C@H](c2ccccc2)[C@@H]1C#N [26a] ; protein binding human = 65

Form: compound = CCCN1[C@@H]2COc3ccccc3[C@@H]2[C@@H]1CNC(=O)c1ccccc1 [32a] ; protein binding human = 95

Form: compound = OC[C@@H]1[C@H](c2ccccc2)[C@@H]2CNCCCCN12 [29b] ; protein binding human = 8

Form: compound = CN1CCCCN2[C@H](CO)[C@H](c3ccccc3)[C@@H]2C1 [29c] ; protein binding human = 1

Form: compound = CCCN1[C@H](CO)[C@H](c2ccccc2)C12CN(C)C2 [30b] ; protein binding human = 28

Form: compound = CCCN1[C@@H]2COc3ccccc3[C@@H]2[C@@H]1CNS(C)(=O)=O [32b] ; protein binding human = 37

Form: compound = CS(=O)(=O)N1CC(=O)N2[C@H](CO)[C@H](c3ccccc3)[C@@H]2C1 [28c] ; protein binding human = −4.6

Form: compound = CCCN1[C@H](CO)[C@H](c2ccccc2)[C@@H]1CN [26b] ; protein binding human = 7

Form: compound = CCCN1C2CNCC1C2c1ccccc1 (centres unmarked) [27a] ; protein binding human = 49

Form: compound = CCCN1[C@H](CO)[C@H](c2ccccc2)C12CN(C(C)=O)C2 [30c] ; protein binding human = 37

Form: compound = CCCN1C(CO)C2c3ccccc3N(C(C)=O)CC21 (racemic) [31b] ; protein binding human = 18

Form: compound = CCCN1C2CN(C(C)=O)CC1C2c1ccccc1 (centres unmarked) [27b] ; protein binding human = 23

Form: compound = CCCN1C(CO)C2c3ccccc3N(S(C)(=O)=O)CC21 (racemic) [31c] ; protein binding human = 45

Form: compound = CCCN1C2CN(Cc3ccc(F)cc3)CC1C2c1ccccc1 (centres unmarked) [27d] ; protein binding human = 98

Form: compound = OC[C@@H]1[C@H](c2ccc(Br)cc2)[C@@H]2CNCCCCN12 [29a] ; protein binding human = 24

Form: compound = CCCN1C2CN(S(C)(=O)=O)CC1C2c1ccccc1 (centres unmarked) [27c] ; protein binding human = 31
